The measurements presented in this section are drawn from patent US20250186600A1.

test system: proteins described in Table 50; experiment: DLS diffusion interaction parameter kD (Example 49); assay type: physicochemical; conditions: omalizumab; excipient stock concentration 100 mM, mixed 1:1 with protein solution; 20 mM His HCl pH 6; 25° C.
Structures can show the parent of a compound that is named as a salt.
quantityKind: Omalizumab kD (mL/g)
Return type: number; implicit unit mL/g.

Before answering, review these 3 worked examples.
Cl.NCC(O)c1ccc(O)c(O)c1 (racemic) [DL-Norepinephrine HCl]
-19.8
C#CCN[C@@H]1CCc2ccccc21 [rasagiline mesylate]
-24.1
CCN(CC)CCCC(C)Nc1ccnc2cc(Cl)ccc12 (stereo not shown) [Chloroquine Phosphate]
-26.4

Next molecule, Omalizumab kD to be filled in.
Problem: Complete the entry with Omalizumab kD for CC(=O)CC(=O)OCc1ccccc1 [Benzyl acetonacetate]
Solution: -27.0
